Tested on: Plasmodium berghei
assay: Screen against P. berghei liver stage (PbLuc), transformed with Luciferase, at 10uM
Type: functional, HepG2
details: tested at 10 uM
Out of some 69,000 compounds screened, about 8,600 (12%) showed an effect of 50% or more. The sample holds strong results, similar compounds and a random draw of the others, so the mix is not that of the screen.

compound: CC(OCC1CC1)C(=O)NCCC(=O)Nc1ccccn1 (centres undefined)
unit of measurement: %
INHIBITION: 1.74

compound: O=C(COCC1CC1)Nc1ncccc1I
unit of measurement: %
INHIBITION: -2.98

compound: CCc1noc(C(C)N2CCC(N3CCCCC3)CC2)n1 (centres undefined)
unit of measurement: %
INHIBITION: 44.1

compound: CCOc1cccc(C(=O)NCCC(=O)Nc2ccncc2)c1
unit of measurement: %
INHIBITION: 46.6
